target: D(2) dopamine receptor (Homo sapiens, UniProt P14416); experiment: In vitro affinity at human cloned Dopamine receptor D2A by [3H]-raclopride displacement.
Sequence (P14416 whole entry): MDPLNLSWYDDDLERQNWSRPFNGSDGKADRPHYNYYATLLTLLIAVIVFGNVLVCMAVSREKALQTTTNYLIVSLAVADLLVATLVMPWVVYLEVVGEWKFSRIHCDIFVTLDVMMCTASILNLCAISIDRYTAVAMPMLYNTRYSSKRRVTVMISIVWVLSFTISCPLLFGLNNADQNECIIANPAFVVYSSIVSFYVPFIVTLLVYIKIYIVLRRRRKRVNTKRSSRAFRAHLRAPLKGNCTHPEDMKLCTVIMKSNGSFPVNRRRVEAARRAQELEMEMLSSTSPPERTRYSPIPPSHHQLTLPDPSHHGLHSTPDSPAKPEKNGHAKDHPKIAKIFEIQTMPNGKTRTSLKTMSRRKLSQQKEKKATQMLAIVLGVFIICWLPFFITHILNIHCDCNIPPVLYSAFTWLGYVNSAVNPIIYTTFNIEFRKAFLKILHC
reported-metric: Ki (nM)
# value in nM; strip the unit string

Qu. What value of Ki has been reported for the following compound? CC(=O)c1ccc2c(c1O)-c1cccc3c1[C@@H](C2)N(C)CC3
Ans. 2760

Qu. I am curious: what Ki value has been reported for CCCN1CCc2cccc3c2[C@H]1Cc1ccc(OS(=O)(=O)C(F)(F)F)c(OC)c1-3 ?
Ans. 403

Qu. Could you tell me which Ki is on file for CCCN1CCc2cccc3c2[C@H]1Cc1ccc(C)c(OC)c1-3 ?
Ans. 238

Qu. Look at this compound and give its reported Ki. CCCN1CCc2cccc3c2[C@H]1Cc1ccc(C)c(O)c1-3
Ans. 249

Numbers sourced from ChEMBL document CHEMBL1129624.
